molecular target: factor VIIa/tissue factor (Homo sapiens); construct: human factor VIIa and TF (5 nM and 10 nM, respective final concentration); assay: Factor VIIa (FVIIa) chromogenic assay; settings: human factor VIIa 5 nM and TF 10 nM, chromogenic substrate S-2288 500 μM, 15 min preincubation, 25° C., pH 8.15
Sequence (P08709 213-466 limits assumed): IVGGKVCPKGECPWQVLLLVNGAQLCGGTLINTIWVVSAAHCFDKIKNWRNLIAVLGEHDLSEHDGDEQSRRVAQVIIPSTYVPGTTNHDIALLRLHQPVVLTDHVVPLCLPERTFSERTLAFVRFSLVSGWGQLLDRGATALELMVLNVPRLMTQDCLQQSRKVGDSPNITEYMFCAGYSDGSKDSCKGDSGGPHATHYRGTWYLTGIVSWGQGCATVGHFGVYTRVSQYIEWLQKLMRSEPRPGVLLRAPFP
Sequence (P08709 61-212 limits assumed): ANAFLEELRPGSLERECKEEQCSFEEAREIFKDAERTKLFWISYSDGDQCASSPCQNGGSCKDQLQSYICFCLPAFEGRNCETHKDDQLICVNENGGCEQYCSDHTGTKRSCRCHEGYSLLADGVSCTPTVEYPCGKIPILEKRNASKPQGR
Sequence (P13726 33-295 partner): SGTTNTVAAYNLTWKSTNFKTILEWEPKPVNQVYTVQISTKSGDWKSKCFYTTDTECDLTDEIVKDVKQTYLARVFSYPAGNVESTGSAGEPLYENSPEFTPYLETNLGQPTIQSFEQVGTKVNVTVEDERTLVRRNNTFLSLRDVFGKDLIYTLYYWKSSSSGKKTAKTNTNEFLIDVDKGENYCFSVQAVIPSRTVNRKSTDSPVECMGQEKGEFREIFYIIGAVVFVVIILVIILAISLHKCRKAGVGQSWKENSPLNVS
VALUE TYPE: Ki (nM)

[a] C=CCOC(=O)N[C@@H](Cc1ccc(C(=N)N)cc1)C(=O)N[C@@H](CCC(=O)O)C(=O)NCCCNS(=O)(=O)c1ccc(OC)cc1 [Example 28]
[b] C=CCOC(=O)N[C@@H](Cc1ccc(C(=N)N)cc1)C(=O)N[C@@H](CCC(=O)O)C(=O)NCc1cccc(CNS(=O)(=O)c2ccc(F)cc2)c1 [Example 25]
Which numeric Ki is bigger, that of a or that of b ? Please reply using the label of the selected record.
b
